assay: Plasma protein binding rate test, equilibrium dialysis, human plasma; format: in vitro ADME; conditions: equilibrium dialysis 37° C. 4 hours, read-out: plasma protein binding PPB bound (%) (converted)
Below, each entry is listed alongside its reported fraction unbound at 4 h, 2 μM.
recorded.metric: fraction unbound at 4 h, 2 μM

[[record]]
compound = "COc1cc(N2CCN(C3=Nc4ccsc4[C@H](CC(=O)O)N3c3cc(C(F)(F)F)ccc3OC)C[C@H]2C)ncn1 (single isomer, unassigned)"
measurement = 0.069

[[record]]
compound = "COc1cc(N2CCN(C3=Nc4ccsc4[C@H](CC(=O)O)N3c3cc(C(F)(F)F)ccc3OC)C[C@H]2C)ccn1 (single isomer, unassigned)"
measurement = 0.06

[[record]]
compound = "COc1cccc(N2CCN(C3=Nc4c(csc4F)[C@H](CC(=O)O)N3c3cc(C(F)(F)F)ccc3OC)C[C@H]2C)c1 (single isomer, unassigned)"
measurement = 0.022

